Sourced from patent US20170081400A1

SYSTEM NAME: T1, human TL1A extracellular domain with N-terminal HIS and FLAG tag (human, UniProt O95150 72-251)
T1 construct: the whole entry is named
T1 sequence: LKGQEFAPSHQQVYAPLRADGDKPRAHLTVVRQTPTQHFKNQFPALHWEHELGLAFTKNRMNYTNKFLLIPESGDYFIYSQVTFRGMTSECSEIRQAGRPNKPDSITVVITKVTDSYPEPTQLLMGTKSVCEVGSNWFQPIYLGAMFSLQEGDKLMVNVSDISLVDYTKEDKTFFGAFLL
PROCEDURE DETAILS: SPR Run 4, purified Ab captured on Protein A, TL1A 5 ug/mL, timepoint 44
This listing pairs binders with measured TL1A Binding Level (Early).
The reply should contain only the number, in RU.

1. 320-360 (antibody, human IgG1, name in Kabat numbering, V domains shown, human IgG1, lambda) VH: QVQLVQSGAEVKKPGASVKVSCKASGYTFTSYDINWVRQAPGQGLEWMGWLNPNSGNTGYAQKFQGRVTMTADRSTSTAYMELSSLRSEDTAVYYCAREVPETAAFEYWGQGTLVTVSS VL: QSVLTQPPSVSGAPGQRVTISCTSSSSDIGAGLGVHWYQQLPGTAPKLLIEGYYNRPSGVPDRFSGSKSGTSASLTITGLLPEDEGDYYCQSYDGTQSALFGGGTKLTVLG | 86

For the next question, use this binder.
For the binder 320-330 (antibody, human IgG1, name in Kabat numbering, V domains shown, human IgG1, lambda) VH: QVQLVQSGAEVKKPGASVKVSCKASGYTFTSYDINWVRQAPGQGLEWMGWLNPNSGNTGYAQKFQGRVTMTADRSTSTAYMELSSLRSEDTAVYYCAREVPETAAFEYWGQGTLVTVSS VL: QSVLTQPPSVSGAPGQRVTISCTSSSSDIGAGLGVHWYQQLPGTAPKLLIEGYYNRPSGVPDRFSGSKSGTSASLTITGLLPEDEGDYYCQSLDGTLSALFGGGTKLTVLG , give its reported TL1A Binding Level (Early).
139
